Reference source: patent US10925971B2

biological target: T1, dimeric human PRLR (hPRLR.mFc; SEQ ID NO:402) (Homo sapiens, UniProt P16471); test: Surface plasmon resonance (Biacore T200), antibody-capture format; assay type: binding; details: 25° C., analyte hPRLR.mFc
T1 construct: dimeric (hPRLR.mFc)
T1 sequence (P16471 with tags, fused parts or gaps): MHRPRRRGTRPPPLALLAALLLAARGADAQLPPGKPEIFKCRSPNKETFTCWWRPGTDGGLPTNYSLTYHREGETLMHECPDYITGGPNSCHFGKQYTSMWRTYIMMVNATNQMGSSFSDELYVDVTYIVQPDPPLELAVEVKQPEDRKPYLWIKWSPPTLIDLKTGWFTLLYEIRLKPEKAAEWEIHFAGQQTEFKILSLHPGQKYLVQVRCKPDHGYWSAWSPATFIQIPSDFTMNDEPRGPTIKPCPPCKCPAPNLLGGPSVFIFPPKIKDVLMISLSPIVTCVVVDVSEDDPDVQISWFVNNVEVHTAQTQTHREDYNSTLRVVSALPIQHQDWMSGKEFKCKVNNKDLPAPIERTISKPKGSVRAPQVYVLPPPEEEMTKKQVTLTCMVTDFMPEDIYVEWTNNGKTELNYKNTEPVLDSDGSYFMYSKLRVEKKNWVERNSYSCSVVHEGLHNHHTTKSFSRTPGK
Below: a set of entries, each annotated with reported kd.
Give a bare numeral; the unit s⁻¹ is implied.

I am curious: what kd value has been reported for H1H6959N2: anti-PRLR antibody, human IgG1 Fc form of H2M6959N2 of Table 1; HCVR/LCVR SEQ ID NOs 306/314 (antibody, V domains shown) VH: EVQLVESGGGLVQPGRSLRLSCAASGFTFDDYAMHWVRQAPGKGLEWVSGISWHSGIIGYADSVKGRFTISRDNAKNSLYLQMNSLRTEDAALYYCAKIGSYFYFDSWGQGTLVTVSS VL: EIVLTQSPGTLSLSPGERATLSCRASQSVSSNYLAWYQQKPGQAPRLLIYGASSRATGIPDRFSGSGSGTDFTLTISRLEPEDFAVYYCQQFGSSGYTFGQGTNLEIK ?
0.000518

I am curious: what kd value has been reported for H1H6953N: anti-PRLR antibody, human IgG1 Fc form of H1M6953N of Table 1; HCVR/LCVR SEQ ID NOs 274/282 (antibody, V domains shown) VH: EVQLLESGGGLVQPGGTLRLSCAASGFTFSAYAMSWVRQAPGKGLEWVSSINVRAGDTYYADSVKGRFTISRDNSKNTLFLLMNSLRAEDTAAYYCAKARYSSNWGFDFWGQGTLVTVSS VL: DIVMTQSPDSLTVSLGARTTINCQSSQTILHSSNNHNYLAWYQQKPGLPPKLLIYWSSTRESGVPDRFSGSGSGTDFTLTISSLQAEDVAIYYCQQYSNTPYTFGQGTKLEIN ?
4.77e-05

I am curious: what kd value has been reported for H1H6793P: fully human anti-PRLR antibody, human IgG1 Fc; HCVR/LCVR SEQ ID NOs 146/154 (antibody, V domains shown) VH: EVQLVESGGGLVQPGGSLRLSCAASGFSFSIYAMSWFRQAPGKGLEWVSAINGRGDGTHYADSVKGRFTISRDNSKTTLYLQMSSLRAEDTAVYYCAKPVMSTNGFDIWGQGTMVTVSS VL: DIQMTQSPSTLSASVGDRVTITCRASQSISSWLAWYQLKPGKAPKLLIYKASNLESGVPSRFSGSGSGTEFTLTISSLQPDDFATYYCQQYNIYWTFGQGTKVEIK ?
7.57e-05

I am curious: what kd value has been reported for H1H6975N: anti-PRLR antibody, human IgG1 Fc form of H2M6975N of Table 1; HCVR/LCVR SEQ ID NOs 370/378 (antibody, V domains shown, human IgG1 Fc) VH: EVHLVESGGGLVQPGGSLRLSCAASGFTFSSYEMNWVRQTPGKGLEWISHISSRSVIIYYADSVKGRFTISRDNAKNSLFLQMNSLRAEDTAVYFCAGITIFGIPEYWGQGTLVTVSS VL: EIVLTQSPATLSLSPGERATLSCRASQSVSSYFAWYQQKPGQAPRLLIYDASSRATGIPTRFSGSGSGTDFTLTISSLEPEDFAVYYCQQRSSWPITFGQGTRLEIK ?
1.97e-05
